Listed here are compounds together with their documented melting point.

The recorded melting point for CSCCC(C(=O)O)N1C(=O)c2ccccc2C1=O (configuration not stated) is 125 to 127 °C

New cases:
Entry CN(C)C(C(=O)O)c1cc(Cl)cc(Cl)c1 (configuration not stated) , melting point reported as 170 to 172 °C

The reported value for O=C(O)c1cccn2cc(CN3CCCC3)nc12 in terms of melting point is 264 to 266 °C

Notebook: Cn1cc(C=O)c(-c2cccnc2)n1 , melting point read as 86 to 88 °C

Memo: CC(=O)N1CCN(c2cc(C#N)ccn2)CC1 , reported melting point: 107 to 109 °C
